In this section, each of the compounds is paired with its reported IC50.
biological target: human MRGPRX2 (Homo sapiens, UniProt Q96LB1); assay: Ca2+ mobilization assay (FLIPR TETRA): inhibition of Cortistatin-14 mediated MRGPRX2 activation

stdin: IC50 for C[C@@H](C(=O)Nc1ccc(Cl)cn1)N1CCC[C@@H](c2c[nH]c(=O)c(N)c2)C1 [Example 170] ?
stdout: 100 to 3160 nM

stdin: What about CC(C(=O)Nc1ccc2cc(C3CC3)cnc2n1)N1CCC(F)(F)[C@@H](c2ccc(=O)[nH]c2)C1 (stereo partly shown) [Example 77] ?
stdout: 100 to 3160 nM

---

Biological target: human MRGPRX2 (Homo sapiens)
Sequence (Q96LB1 1-330): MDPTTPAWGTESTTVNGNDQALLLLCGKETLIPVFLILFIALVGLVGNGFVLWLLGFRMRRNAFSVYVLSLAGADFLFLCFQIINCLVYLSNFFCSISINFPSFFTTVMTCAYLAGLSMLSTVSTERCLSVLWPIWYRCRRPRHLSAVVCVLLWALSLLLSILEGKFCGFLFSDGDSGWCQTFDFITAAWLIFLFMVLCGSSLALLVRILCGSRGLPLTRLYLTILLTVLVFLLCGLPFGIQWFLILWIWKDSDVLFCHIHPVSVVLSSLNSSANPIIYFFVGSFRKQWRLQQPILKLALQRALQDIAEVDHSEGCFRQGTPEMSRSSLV
Assay: Ca2+ mobilization assay (FLIPR TETRA): inhibition of Cortistatin-14 mediated MRGPRX2 activation
recordedMetric: IC50

Recorded IC50, per entry:
CC(C)c1ccc(NC(=O)C(C)N2CCC(F)(F)[C@@H](c3ccc(=O)[nH]c3)C2)nc1 (stereo partly drawn) [Example 82]; 100 to 3160 nM
C[C@@H](C(=O)Nc1ccc(Cl)cn1)N1CCC(F)(F)[C@@H](c2c[nH]c(=O)c(N)n2)C1 [Example 107]; 100 to 3160 nM
C[C@@H](C(=O)Nc1ccc(Cl)cn1)N1CCC[C@@H](c2ccc(=O)n(C)c2)C1 [Example 176]; 3160 to 31600 nM
C[C@@H](C(=O)Nc1ccc(Oc2ccc(F)cc2F)cn1)N1CCC(F)(F)C(c2c[nH]c(=O)c(C(O)C(F)(F)F)c2)C1 (stereo partly drawn) [Example 212]; ≤ 10 nM
C[C@@H](C(=O)Nc1ccc(F)cn1)N1CCC(F)(F)C(c2c[nH]c(=O)c(C(N)C(F)(F)F)c2)C1 (stereo partly drawn) [Example 232]; 100 to 3160 nM

stdin: GET /values?readout=IC50&item= C[C@@H](C(=O)Nc1ccc(Oc2ccc(F)cc2F)cn1)N1CCC(F)(F)C(c2ccnc(CN3CC(F)(F)C3)c2)C1 (mixture of isomers) [Example 270]
stdout: 10 to 100 nM

stdin: Try this molecule too: C[C@@H](C(=O)Nc1ccc(/C=C/C2CC2)cn1)N1CCC(F)(F)[C@@H](c2ccc(=O)[nH]c2)C1 [Example 10]
stdout: 10 to 100 nM

stdin: What would you report for C[C@@H](C(=O)Nc1ccc(OCC2CC2)cn1)N1CCC(F)(F)[C@@H](c2c[nH]c(=O)cn2)C1 [Example 133] ?
stdout: ≤ 10 nM

stdin: Can you check CNCc1cc([C@H]2CN([C@@H](C)C(=O)Nc3ccc(Oc4ccc(F)cc4F)cn3)CCC2(F)F)c[nH]c1=O [Example 243] next?
stdout: ≤ 10 nM

stdin: Same read-out for C[C@@H](C(=O)Nc1ccc(Oc2ccccn2)cn1)N1CCC(F)(F)[C@@H](c2cc[n+]([O-])cc2)C1 [Example 126] ?
stdout: 10 to 100 nM

stdin: Lookup C[C@@H](C(=O)Nc1ccc(Oc2ccc(F)cc2F)cn1)N1CCC(F)(F)[C@@H](c2ccc(=O)[nH]c2)C1 [Example 4]
stdout: ≤ 10 nM

stdin: What do you have for C[C@@H](C(=O)Nc1ccc(Oc2ccc(F)cc2F)cn1)N1CCC(F)(F)[C@@H](c2cc[n+]([O-])c(CO)c2)C1 [Example 255] ?
stdout: ≤ 10 nM

stdin: Moving on to C[C@@H](C(=O)Nc1ccc(Oc2ccc(F)cc2)cn1)N1CCC(F)(F)[C@@H](c2c[nH]c(=O)c(CN)c2)C1 [Example 204]
stdout: ≤ 10 nM

stdin: Try this molecule next: C[C@@H](C(=O)Nc1ccc(OCc2ccccc2)cn1)N1CCC(F)(F)[C@@H](c2ccc(=O)[nH]c2)C1 [Example 22]
stdout: 100 to 3160 nM

stdin: C[C@@H](C(=O)Nc1ccc(Oc2ccccn2)cn1)N1CCC(F)(F)[C@@H](c2ccc(=O)[nH]c2)C1 [Example 61] , same question.
stdout: 10 to 100 nM

stdin: Lookup CC(C(=O)Nc1ccc(OCC2CC2(F)F)cn1)N1CCC(F)(F)[C@@H](c2ccc(=O)[nH]c2)C1 (stereo partly drawn) [Example 36]
stdout: 100 to 3160 nM

stdin: How about C[C@@H](C(=O)Nc1ccc(OC2CCCC2)nn1)N1CCC(F)(F)[C@@H](c2ccc(=O)[nH]c2)C1 [Example 101] ?
stdout: 10 to 100 nM

stdin: Input C[C@@H](C(=O)Nc1ccc(Oc2ccc(F)cc2)cn1)N1CCC(F)(F)[C@@H](c2cc[n+]([O-])cc2)C1 [Example 114]
stdout: ≤ 10 nM

stdin: And what about the molecule C[C@@H](C(=O)Nc1ccc(Oc2ccc(F)cc2F)cn1)[C@H]1CCC[C@@H](c2ccc(=O)[nH]c2)C1 [Example 282] ?
stdout: ≤ 10 nM

stdin: Ok, now C[C@@H](C(=O)Nc1ccc(C2CCC2)cn1)N1CCC(F)(F)[C@@H](c2ccc(=O)[nH]c2)C1 [Example 18]
stdout: 100 to 3160 nM

stdin: Next entry: C[C@@H](C(=O)Nc1ccc(Oc2ncc(F)cc2F)cn1)N1CCC(F)(F)[C@@H](c2ccc(=O)[nH]c2)C1 [Example 66]
stdout: ≤ 10 nM

stdin: Now try C[C@@H](C(=O)Nc1ccc(Oc2ccc(F)cc2)cn1)N1CCC(F)(F)[C@@H](c2c[nH]c(=O)c(C#N)c2)C1 [Example 251] .
stdout: ≤ 10 nM

stdin: Do the same for CC(C(=O)Nc1ccc(Oc2ccc(F)cc2)cn1)N1CCC(F)(F)C(c2cc[n+]([O-])c(C(O)C(F)(F)F)c2)C1 (stereo not drawn) [Example 257] please
stdout: 10 to 100 nM

stdin: Moving on to C[C@@H](C(=O)Nc1ccc2cc(C3CC3)ccc2n1)N1CCC(F)(F)[C@@H](c2ccc(=O)[nH]c2)C1 [Example 25]
stdout: 100 to 3160 nM

stdin: Try this molecule too: C[C@@H](C(=O)Nc1ccc(Cl)cn1)N1CCC[C@@H](c2c[nH]c(=O)c(C3CC3)c2)C1 (single isomer, unassigned) [Example 179]
stdout: 100 to 3160 nM

stdin: What do you have for C[C@@H](C(=O)Nc1ccc(Oc2ccc(F)cc2)cn1)N1CCC(F)(F)[C@@H](c2c[nH]c(=O)c(N)n2)C1 [Example 108] ?
stdout: ≤ 10 nM

stdin: CC(C(=O)Nc1ccc(Br)cn1)N1CCC(F)(F)[C@@H](c2ccc(=O)[nH]c2)C1 (stereo partly drawn) [Example 94] ?
stdout: 100 to 3160 nM
